# system-tested: Kappa-type opioid receptor (Homo sapiens) (UniProt P41145)
# Sequence (P41145 whole entry, looked up): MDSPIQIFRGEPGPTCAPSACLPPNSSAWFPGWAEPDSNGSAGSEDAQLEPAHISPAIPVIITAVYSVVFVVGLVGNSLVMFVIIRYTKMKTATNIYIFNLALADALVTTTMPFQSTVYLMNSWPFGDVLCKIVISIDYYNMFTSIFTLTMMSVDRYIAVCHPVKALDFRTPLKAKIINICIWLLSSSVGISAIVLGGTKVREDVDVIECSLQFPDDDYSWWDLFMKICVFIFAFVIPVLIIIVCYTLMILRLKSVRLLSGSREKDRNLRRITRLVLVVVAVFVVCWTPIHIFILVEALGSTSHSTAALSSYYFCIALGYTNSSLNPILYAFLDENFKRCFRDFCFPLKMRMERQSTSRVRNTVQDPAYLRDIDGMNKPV
# test: kappa opioid receptor blockers – cell-based, luminescence, uHTS (AID 1778)
# test-parameters: KOR beta-arrestin recruitment, antagonist mode; at 10 µM unless noted
Screen size: about 290,000 compounds; about 260 (0.09%) were called active. Rule as the data show it: active = inhibition above about 50%; inactive = the rest. Shown is part of a subset that was picked to be rich in actives. Measured potencies and affinities stand elsewhere.
Outcomes: 1 (yes) (active), 0 (no) (inactive)

mol-smiles | category
N=C1S/C(=C\c2ccco2)C(=O)N1c1ccc2c(c1)OCO2 | 0 (no)
N=C1S/C(=C\c2ccco2)C(=O)N1c1nccs1 | 1 (yes)
Cc1[nH]c2ccccc2c1/C=N/n1cnnc1 | 0 (no)
CCOc1cc(/C=C2\SC(=N)N(c3nccs3)C2=O)ccc1OCCN1CCOCC1 | 0 (no)
COc1cc(/C=C2\SC(=N)N(c3ccc(F)cc3)C2=O)ccc1O | 0 (no)
O=C1OC(c2cccs2)=N/C1=C\c1ccc(-c2cccc(Cl)c2)o1 | 0 (no)

###

# system-tested: Kappa-type opioid receptor (Homo sapiens) (UniProt P41145)
# test: kappa opioid receptor blockers – cell-based, luminescence, uHTS (AID 1778)
# test-parameters: KOR beta-arrestin recruitment, antagonist mode, active compounds read high; at 10 µM unless noted
Screen size: about 290,000 compounds; about 260 (0.09%) were called active. For the sample, actives were picked, then their nearest neighbours and some compounds at random. Entries with a potency or affinity are not part of this list.
Attribute: inhibition
observation-type: inhibition (%)

compound | reading-unit | recorded-result
COc1ccc(NC(=O)/C(Cl)=C(/Cl)S(=O)(=O)Cc2ccc(C)cc2)cn1 | % | 47.9
COc1ccc(NC(=O)/C(Cl)=C(/Cl)S(=O)(=O)Cc2ccccc2)cn1 | % | 58.9
COc1ccc(NC(=O)/C(Cl)=C(/Cl)S(=O)Cc2ccc(Cl)cc2)cn1 (stereo not given) | % | 48.8
COc1ccc(NC(=O)C(Cl)=C(Cl)Cl)cn1 | % | 8
O=C1COc2ccc(-c3csc(=Nc4ccc(OC(F)F)cc4)n3CC3CCCO3)cc2N1 (stereo not given) | % | 14.3

###

# system-tested: Kappa-type opioid receptor (Homo sapiens) (UniProt P41145)
# test: kappa opioid receptor blockers – cell-based, luminescence, uHTS (AID 1778)
# test-parameters: KOR beta-arrestin recruitment, antagonist mode; at 10 µM unless noted
About 260 (0.09%) of roughly 290,000 compounds were called active. No stated cut-off is given here; in the data, active means inhibition above about 50%; inactive means the rest. The list comes from a sample in which actives are over-represented; it also holds close analogues and randomly drawn compounds. Entries with a potency or affinity are not part of this list.
Outcomes: active, inactive

molecule | category
O=C1CN(C(=O)COC(=O)CCNS(=O)(=O)c2ccc(Cl)cc2)c2ccccc2N1 | inactive
CNC(=S)N1N=C(c2ccc(C)cc2)CC1c1ccc(N(C)C)cc1 (stereo unspecified) | inactive
Cc1ccc(Cl)cc1NC(=S)Nn1cnnc1 | inactive
CC/C(C)=N/Oc1nc(C)cc(C)n1 | inactive
Oc1[nH]c(N=C2N=c3ccccc3=N2)c2ccccc12 | active
Cc1[nH]nc2c1C(c1ccccc1F)CC(=O)N2 (stereo unspecified) | inactive

###

# system-tested: Kappa-type opioid receptor (Homo sapiens)
# test: kappa opioid receptor blockers – cell-based, luminescence, uHTS (AID 1778)
# test-parameters: KOR beta-arrestin recruitment, antagonist mode, active compounds read high; at 10 µM unless noted
Screen size: about 290,000 compounds; about 260 (0.09%) were called active. The sample as a whole holds a higher share of actives than the screen did. Potency and affinity values are given separately.

compound | system-tested | inhibition
COc1ccc(OC)c(N2C(N)=C(C#N)C(c3ccc(OC)c(O)c3)C3=C2CC(C)(C)CC3=O)c1 (stereo unspecified) | Kappa-type opioid receptor (Homo sapiens) | 16.3% (inactive)
O=C(N/N=C/c1ccoc1)c1cc(Br)ccc1O | Kappa-type opioid receptor (Homo sapiens) | -13.2% (inactive)
O=C(CSc1ccc2nnc(-c3ccccn3)n2n1)NCc1ccco1 | Kappa-type opioid receptor (Homo sapiens) | -19.3% (inactive)
CCNc1nc(Oc2ccc(C(=O)OC)cc2)nc(SC)n1 | Kappa-type opioid receptor (Homo sapiens) | 1.5% (inactive)
C(=C\c1ccccc1)/CSc1ccccn1 | Kappa-type opioid receptor (Homo sapiens) | -4.7% (inactive)
COc1cc(NC(=O)CN2CCCCC2)c(C)cc1[N+](=O)[O-] | Kappa-type opioid receptor (Homo sapiens) | 13% (inactive)
c1cncc(-c2cn(C[C@H]3CC[C@@H]([C@@H]4CC[C@H](Cn5cc(-c6cccnc6)nn5)O4)O3)nn2)c1 | Kappa-type opioid receptor (Homo sapiens) | -10.8% [at 20 µM] (inactive)
Cc1ccc(C(=O)CC(=O)c2ccccc2)cc1 | Kappa-type opioid receptor (Homo sapiens) | -30.1% [at 20 µM] (inactive)
CCC(C(=O)NCc1cccs1)n1nc(C)n2c(cc3occc32)c1=O (stereo unspecified) | Kappa-type opioid receptor (Homo sapiens) | -9.9% (inactive)
CCCCN(Cc1cc2cc(OC)ccc2[nH]c1=O)S(=O)(=O)c1ccc(C)cc1 | Kappa-type opioid receptor (Homo sapiens) | -44.3% [at 20 µM] (inactive)
Cc1ccc(C(=O)Nc2ccccc2Sc2ccccc2)cc1 | Kappa-type opioid receptor (Homo sapiens) | 5.8% (inactive)

###

# system-tested: Kappa-type opioid receptor (Homo sapiens) (UniProt P41145)
# test: kappa opioid receptor blockers – cell-based, luminescence, uHTS (AID 1778)
# test-parameters: KOR beta-arrestin recruitment, antagonist mode, active compounds read high; at 10 µM unless noted
About 260 (0.09%) of roughly 290,000 compounds were called active. The entries come from a sample that favours actives as a whole. Measured potencies and affinities stand elsewhere.

compound | inhibition / %
COc1ccc(SCC(=O)c2cc(C)c(OC(=S)N(C)C)c(C)c2)cc1 | -46.3
O=C(O)c1nnn(-c2cc(C(F)(F)F)cc(C(F)(F)F)c2)c1-c1ccccc1 | 7.9
O=C(N/N=C/c1cc2cc3c(cc2nc1Cl)OCO3)c1ccncc1 | -14.5
CCCN(CCC)CC(O)Cn1cc(/C=C/C(=O)c2ccccc2)c2ccccc21 (stereo not given) | 19
COc1ccc(NC(=O)c2ccccc2)cc1NS(=O)(=O)c1ccc(F)cc1 | -5
CCc1nn(CC(=O)NCCCN(C)Cc2ccccc2)c(=O)c2cc3sc(C)cc3n12 | 1.9
CCOC(=O)c1c(N)sc(C(O)(C(F)(F)F)C(F)(F)F)c1-c1ccc(F)cc1 | -27.6
COc1ccc(CNC(=O)C2CCC(=O)N(CCCN3CCCC3=O)C2)c(OC)c1 (stereo not given) | -21.5
Cc1c(C(=O)Nc2ccc3c(c2)OCO3)oc2ccccc12 | -1.2
Nc1cc(=O)[nH]c(SCC(=O)Nc2cc([N+](=O)[O-])ccc2Cl)n1 | 15.1

###

# system-tested: Kappa-type opioid receptor (Homo sapiens)
# test: kappa opioid receptor blockers – cell-based, luminescence, uHTS (AID 1778)
# test-parameters: KOR beta-arrestin recruitment, antagonist mode, active compounds read high; at 10 µM unless noted
Screen size: about 290,000 compounds; about 260 (0.09%) were called active. The sample as a whole holds a higher share of actives than the screen did. Measured potencies and affinities stand elsewhere.

compound | inhibition
O=C(CCN1C(=O)[C@@H]2Cc3ccccc3CN2C1=O)N[C@H](Cc1ccccc1)C(=O)O | -10% [at 20 µM] (inactive)
O=C1CC(C2CCCO2)C(=O)N1c1ccc(Cl)c(Cl)c1 (stereo unspecified) | -15.9% [at 20 µM] (inactive)
COc1ccc(CNC2CCCc3ccccc32)cc1OC (stereo unspecified) | -0.9% (inactive)
N#CC(C#N)=C1C=CC=CN1/C(=C\c1ccccc1)C(=O)c1cccs1 | -1% (inactive)
COc1ccc(C(=O)N/C(=C/c2ccco2)C(=O)N2CCCCCC2)cc1 | -0.8% (inactive)
O=C(Nc1ccc(C(F)(F)F)cc1)c1ccc2ncsc2c1 | -15.9% (inactive)
O=C(O)/C(=C/c1ccco1)c1ccccc1 | -9.6% (inactive)
CC(=O)c1ccc(Nc2ccc([N+](=O)[O-])c3nonc23)cc1 | 37.3% [at 20 µM] (inactive)
N#C/C(=C\c1ccco1)C(=O)NCc1ccccc1 | 7.2% (inactive)
N#CC(C#N)=C1C=CC=CN1/C(=C\c1ccccc1Cl)C(=O)c1ccccc1 | 26.8% (inactive)
N#C/C(=C\c1ccco1)C(=O)Nn1cnnc1 | 1% (inactive)

###

# system-tested: Kappa-type opioid receptor (Homo sapiens) (UniProt P41145)
# test: kappa opioid receptor blockers – cell-based, luminescence, uHTS (AID 1778)
# test-parameters: KOR beta-arrestin recruitment, antagonist mode; at 10 µM unless noted
Hit rate of the full screen: of about 290,000 compounds, about 260 (0.09%) were called active. Cut-off read from the data, not from the text of the source: active = inhibition above about 50%; inactive = the rest. The sample as a whole holds a higher share of actives than the screen did. Potency and affinity values are given separately.
Outcomes: T (active), F (inactive)

compound | category
O=C(Oc1c(Cl)cc(Cl)c2cccnc12)c1cccc([N+](=O)[O-])c1 | T
Cc1ccc(NC(=S)NCCN2CCOCC2)cc1C | F
Cc1nc(CSc2ccc(Cl)cc2)cs1 | F
O=C(Oc1ccc(Cl)c2cccnc12)c1cccc([N+](=O)[O-])c1 | F
COc1ccccc1N(CC(O)COc1ccccc1)S(=O)(=O)c1ccccc1 (stereo unspecified) | F
O=C(Oc1cccc2cccnc12)c1cccc([N+](=O)[O-])c1 | F
Cc1cc(C)n2nc(SCC(=O)NC3CCCCC3)nc2n1 | F
N#CC1=C(N)Oc2n[nH]c(-c3ccccc3)c2C1c1cccc(OC(=O)N2CCOCC2)c1 (stereo unspecified) | F
Cc1ccc(C)n1-n1c(C)nc2scc(-c3ccccc3)c2c1=O | F
COc1cc(NS(=O)(=O)c2cn(C)cn2)cc(OC)c1 | F
CC1(C)Cc2c(sc3ncn4nnnc4c23)CO1 | F
